METHOD_SUMMARY: paclitaxel prodrug loading and sizing of PEG-b-PCL micelles
Type: physicochemical
SETUP_CONDITIONS: 20% w/w prodrug loading in 0.5-mM PEG-b-PCL micelles
REPORTED_PROPERTY: Solubilized (mg/mL)

{"COMPOUND": "CCCCCCCCCCCC(=O)OC(C(=O)OC1CC2(O)C(OC(=O)c3ccccc3)C3C4(OC(C)=O)COC4CC(O)C3(C)C(=O)C(OC(C)=O)C(=C1C)C2(C)C)C(NC(=O)c1ccccc1)c1ccccc1 (centres unmarked) [Prodrug 5b]", "Solubilized [mg/mL]": 1.57}
{"COMPOUND": "CCCCCCCCCCCCCCCC(=O)O[C@H]1C[C@H]2OC[C@@]2(OC(C)=O)[C@H]2[C@H](OC(=O)c3ccccc3)[C@]3(O)C[C@H](OC(=O)[C@H](O)[C@@H](NC(=O)c4ccccc4)c4ccccc4)C(C)=C([C@@H](OC(C)=O)C(=O)[C@]12C)C3(C)C [Prodrug 4c, 7-palmitate-paclitaxel]", "Solubilized [mg/mL]": 1.62}
{"COMPOUND": "CCCCCCCCCCCC(=O)O[C@H]1C[C@H]2OC[C@@]2(OC(C)=O)[C@H]2[C@H](OC(=O)c3ccccc3)[C@]3(O)C[C@H](OC(=O)[C@H](O)[C@@H](NC(=O)c4ccccc4)c4ccccc4)C(C)=C([C@@H](OC(C)=O)C(=O)[C@]12C)C3(C)C [Prodrug 4b]", "Solubilized [mg/mL]": 1.47}
{"COMPOUND": "CCCCCC(=O)O[C@@H](C(=O)O[C@H]1C[C@@]2(O)[C@@H](OC(=O)c3ccccc3)[C@@H]3[C@]4(OC(C)=O)CO[C@@H]4C[C@H](O)[C@@]3(C)C(=O)[C@H](OC(C)=O)C(=C1C)C2(C)C)[C@@H](NC(=O)c1ccccc1)c1ccccc1 [Prodrug 5a]", "Solubilized [mg/mL]": 1.42}

---

METHOD_SUMMARY: paclitaxel prodrug loading and sizing of PEG-b-PCL micelles
Type: physicochemical
SETUP_CONDITIONS: 20% w/w prodrug loading in 0.5-mM PEG-b-PCL micelles
REPORTED_PROPERTY: Solubilized (mg/mL)
API: value field is a number in mg/mL; no unit string.

{"MOLECULE": "CCCCCC(=O)O[C@H]1C[C@H]2OC[C@@]2(OC(C)=O)[C@H]2[C@H](OC(=O)c3ccccc3)[C@]3(O)C[C@H](OC(=O)[C@H](O)[C@@H](NC(=O)c4ccccc4)c4ccccc4)C(C)=C([C@@H](OC(C)=O)C(=O)[C@]12C)C3(C)C [Prodrug 4a]", "Solubilized (mg/mL)": 1.55}

Ask | What value of measured Solubilized is listed for CCCCCCCCCCCCCCCC(=O)O[C@@H](C(=O)O[C@H]1C[C@@]2(O)[C@@H](OC(=O)c3ccccc3)[C@@H]3[C@]4(OC(C)=O)CO[C@@H]4C[C@H](O)[C@@]3(C)C(=O)[C@H](OC(C)=O)C(=C1C)C2(C)C)[C@@H](NC(=O)c1ccccc1)c1ccccc1 [Prodrug 5c, 2-palmitate-paclitaxel] ?
Reply | 1.85

---

METHOD_SUMMARY: physchem
REPORTED_PROPERTY: chromatographic logP
// keep it numeric: no unit symbol after the value

Ask | What value of measured chromatographic logP is listed for `CO[C@H]1C[C@@H]2CC[C@@H](C)[C@@](O)(O2)C(=O)C(=O)N2CCCC[C@H]2C(=O)O[C@H]([C@H](C)C[C@@H]2CC[C@@H](O)[C@H](OC)C2)CC(=O)[C@H](C)/C=C(\C)[C@@H](O)[C@@H](OC)C(=O)[C@H](C)C[C@H](C)/C=C/C=C/C=C/1C` ?
Reply | 3.77

---

METHOD_SUMMARY: paclitaxel prodrug loading and sizing of PEG-b-PCL micelles
Type: physicochemical
SETUP_CONDITIONS: 20% w/w prodrug loading in 0.5-mM PEG-b-PCL micelles
REPORTED_PROPERTY: prodrug:caprolactone

Observe how each entry below is paired with its result.
{"COMPOUND": "CCCCCC(=O)O[C@@H](C(=O)O[C@H]1C[C@@]2(O)[C@@H](OC(=O)c3ccccc3)[C@@H]3[C@]4(OC(C)=O)CO[C@@H]4C[C@H](O)[C@@]3(C)C(=O)[C@H](OC(C)=O)C(=C1C)C2(C)C)[C@@H](NC(=O)c1ccccc1)c1ccccc1 [Prodrug 5a]", "REPORTED_PROPERTY": "prodrug:caprolactone", "TEST_VALUE": "33.4 mmol:mol"}
{"COMPOUND": "CCCCCCCCCCCC(=O)O[C@H]1C[C@H]2OC[C@@]2(OC(C)=O)[C@H]2[C@H](OC(=O)c3ccccc3)[C@]3(O)C[C@H](OC(=O)[C@H](O)[C@@H](NC(=O)c4ccccc4)c4ccccc4)C(C)=C([C@@H](OC(C)=O)C(=O)[C@]12C)C3(C)C [Prodrug 4b]", "REPORTED_PROPERTY": "prodrug:caprolactone", "TEST_VALUE": "31.8 mmol:mol"}

We next turn to a different compound, shown below.
Ask | What value of measured prodrug:caprolactone is listed for CCCCCCCCCCCCCCCC(=O)O[C@H]1C[C@H]2OC[C@@]2(OC(C)=O)[C@H]2[C@H](OC(=O)c3ccccc3)[C@]3(O)C[C@H](OC(=O)[C@H](O)[C@@H](NC(=O)c4ccccc4)c4ccccc4)C(C)=C([C@@H](OC(C)=O)C(=O)[C@]12C)C3(C)C [Prodrug 4c, 7-palmitate-paclitaxel] ?
Reply | 33.3 mmol:mol

---

METHOD_SUMMARY: paclitaxel prodrug loading and sizing of PEG-b-PCL micelles
Format: physicochemical
SETUP_CONDITIONS: 20% w/w prodrug loading in 0.5-mM PEG-b-PCL micelles
REPORTED_PROPERTY: prodrug w/w % (%)

{"COMPOUND": "CCCCCCCCCCCC(=O)OC(C(=O)OC1CC2(O)C(OC(=O)c3ccccc3)C3C4(OC(C)=O)COC4CC(O)C3(C)C(=O)C(OC(C)=O)C(=C1C)C2(C)C)C(NC(=O)c1ccccc1)c1ccccc1 (stereo not drawn) [Prodrug 5b]", "MEASUREMENT_UNIT": "%", "prodrug w/w %": 17.3}
{"COMPOUND": "CCCCCC(=O)O[C@H]1C[C@H]2OC[C@@]2(OC(C)=O)[C@H]2[C@H](OC(=O)c3ccccc3)[C@]3(O)C[C@H](OC(=O)[C@H](O)[C@@H](NC(=O)c4ccccc4)c4ccccc4)C(C)=C([C@@H](OC(C)=O)C(=O)[C@]12C)C3(C)C [Prodrug 4a]", "MEASUREMENT_UNIT": "%", "prodrug w/w %": 17.1}
{"COMPOUND": "CCCCCCCCCCCCCCCC(=O)O[C@H]1C[C@H]2OC[C@@]2(OC(C)=O)[C@H]2[C@H](OC(=O)c3ccccc3)[C@]3(O)C[C@H](OC(=O)[C@H](O)[C@@H](NC(=O)c4ccccc4)c4ccccc4)C(C)=C([C@@H](OC(C)=O)C(=O)[C@]12C)C3(C)C [Prodrug 4c, 7-palmitate-paclitaxel]", "MEASUREMENT_UNIT": "%", "prodrug w/w %": 21.6}
{"COMPOUND": "CCCCCC(=O)O[C@@H](C(=O)O[C@H]1C[C@@]2(O)[C@@H](OC(=O)c3ccccc3)[C@@H]3[C@]4(OC(C)=O)CO[C@@H]4C[C@H](O)[C@@]3(C)C(=O)[C@H](OC(C)=O)C(=C1C)C2(C)C)[C@@H](NC(=O)c1ccccc1)c1ccccc1 [Prodrug 5a]", "MEASUREMENT_UNIT": "%", "prodrug w/w %": 17.8}
{"COMPOUND": "CCCCCCCCCCCCCCCC(=O)O[C@@H](C(=O)O[C@H]1C[C@@]2(O)[C@@H](OC(=O)c3ccccc3)[C@@H]3[C@]4(OC(C)=O)CO[C@@H]4C[C@H](O)[C@@]3(C)C(=O)[C@H](OC(C)=O)C(=C1C)C2(C)C)[C@@H](NC(=O)c1ccccc1)c1ccccc1 [Prodrug 5c, 2-palmitate-paclitaxel]", "MEASUREMENT_UNIT": "%", "prodrug w/w %": 19.8}
{"COMPOUND": "CCCCCCCCCCCC(=O)O[C@H]1C[C@H]2OC[C@@]2(OC(C)=O)[C@H]2[C@H](OC(=O)c3ccccc3)[C@]3(O)C[C@H](OC(=O)[C@H](O)[C@@H](NC(=O)c4ccccc4)c4ccccc4)C(C)=C([C@@H](OC(C)=O)C(=O)[C@]12C)C3(C)C [Prodrug 4b]", "MEASUREMENT_UNIT": "%", "prodrug w/w %": 16.4}

---

System: MDA-MB-468 breast cancer cell line
METHOD_SUMMARY: MTS cytotoxicity assay
Type: cell-based
SETUP_CONDITIONS: Homo sapiens, 96 h; MDA-MB-468, 4 days, drugs in 1% DMSO
REPORTED_PROPERTY: IC50 (nM)
API: value field is a number in nM; no unit string.

Ask | What value of measured IC50 is listed for `COC1=C2C[C@@H](C)C[C@H](OC)[C@H](O)[C@@H](C)/C=C(\C)[C@H](OC(N)=O)[C@@H](OC)/C=C\C=C(/C)C(=O)NC(=CC1=O)C2=O` ?
Reply | 5
